src = PubChem BioAssay AID2060485

Test system: A375 multi-cell spheroids with HUVEC/MSC, viability
Protocol Description: Anticancer human tumor A375 cell line growth inhibition [GQUAD];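 note: spheroids exposed to compounds for seven days before readout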
Assay Setup: second compound 0.0316 µM; first compound 0.0316 µM; active compounds read low
Parameter Measured: viability, T/C (%)
One number for each entry, in %.

Recorded viability, T/C, per entry:
COc1ccc([C@@H](O)c2cc(-c3ncnc4cc(N5CCOCC5)ccc34)c(F)cc2Cl)nn1 + CN(C)c1ccc(Nc2c3ccc(NC(=O)CCN4CCCC4)cc3nc3cc(NC(=O)CCN4CCCC4)ccc23)cc1 | 106
CC1COCCN1c1cc(-c2ccnn2C)c2ccnc(-c3ccn[nH]3)c2n1 (stereo not given) + Cc1[nH]c2ccc(F)cc2c1-c1nc2c3cccnc3c3ncccc3c2[nH]1 | 111
CC1COCCN1c1cc(-c2ccnn2C)c2ccnc(-c3ccn[nH]3)c2n1 (stereo not given) + Cc1cnc(CNC(=O)c2c(=O)c3ccc(N4CCCN(C)CC4)nc3n3c2sc2ccccc23)cn1 | 102
COc1cc(C2c3cc4c(cc3C(OC3OC5COC(C)OC5C(O)C3O)C3COC(=O)C23)OCO4)cc(OC)c1O (stereo not given) + Cc1[nH]c2ccc(F)cc2c1-c1nc2c3cccnc3c3ncccc3c2[nH]1 | 109

Below: the item to evaluate.
Short answer for C#Cc1c(F)ccc2cc(O)cc(-c3ncc4c(N5CC6CCC(C5)N6)nc(OCC56CCCN5CC(F)C6)nc4c3F)c12 (stereo not given) + CN(C)c1ccc(Nc2c3ccc(NC(=O)CCN4CCCC4)cc3nc3cc(NC(=O)CCN4CCCC4)ccc23)cc1 : viability, T/C was 111
